The reported measurements were obtained from the supplement of paper PMC10065799.

biological target: Jak2 (UniProt O60674); assay: phosphorylation enrichment, bacterial display (enrichment ratio); higher = better substrate or ligand; peptides without Tyr show the background;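 further: 11-residue human phosphosite peptides and single-mutation variants displayed on the E. coli surface, counted by deep sequencing, each peptide's frequency after selection divided by its frequency in the unselected input library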;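 further: frequency after pTyr selection over input frequency; kinase dosed for 20-30% of maximal phosphorylation in three min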
Sequence (O60674 whole entry, looked up): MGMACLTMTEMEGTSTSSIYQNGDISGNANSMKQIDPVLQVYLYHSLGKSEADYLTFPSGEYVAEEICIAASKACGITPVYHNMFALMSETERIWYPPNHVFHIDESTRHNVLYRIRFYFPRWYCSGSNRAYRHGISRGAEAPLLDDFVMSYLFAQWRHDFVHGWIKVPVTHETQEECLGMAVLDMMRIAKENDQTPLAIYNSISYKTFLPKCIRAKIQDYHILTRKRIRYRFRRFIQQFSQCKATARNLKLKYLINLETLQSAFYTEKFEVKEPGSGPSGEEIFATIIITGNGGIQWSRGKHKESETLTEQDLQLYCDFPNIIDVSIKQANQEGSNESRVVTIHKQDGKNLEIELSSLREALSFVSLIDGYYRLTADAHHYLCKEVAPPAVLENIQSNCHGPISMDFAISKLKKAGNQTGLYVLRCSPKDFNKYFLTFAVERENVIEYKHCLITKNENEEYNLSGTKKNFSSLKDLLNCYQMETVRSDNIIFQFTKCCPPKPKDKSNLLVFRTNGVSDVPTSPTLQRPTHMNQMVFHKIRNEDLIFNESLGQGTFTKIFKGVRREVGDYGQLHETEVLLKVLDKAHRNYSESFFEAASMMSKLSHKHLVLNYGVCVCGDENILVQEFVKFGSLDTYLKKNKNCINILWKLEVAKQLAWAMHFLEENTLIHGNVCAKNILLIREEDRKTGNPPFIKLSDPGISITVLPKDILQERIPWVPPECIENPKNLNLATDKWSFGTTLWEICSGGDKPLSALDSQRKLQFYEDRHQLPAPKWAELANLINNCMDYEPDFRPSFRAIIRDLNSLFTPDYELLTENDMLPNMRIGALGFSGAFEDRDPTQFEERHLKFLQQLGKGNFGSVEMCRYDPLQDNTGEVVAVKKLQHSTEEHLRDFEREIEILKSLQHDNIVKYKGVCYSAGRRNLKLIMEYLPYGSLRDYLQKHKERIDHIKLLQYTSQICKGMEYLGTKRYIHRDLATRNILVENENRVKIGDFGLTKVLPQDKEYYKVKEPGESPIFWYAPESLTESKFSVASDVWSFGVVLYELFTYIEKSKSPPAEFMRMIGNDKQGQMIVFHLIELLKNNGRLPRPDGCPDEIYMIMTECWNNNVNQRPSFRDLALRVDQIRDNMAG
Label Y when phosphorylation enrichment is at or above 1; anything below gets N.

Known results for sequences:
EEKKKYYDTKI [CASP5_Y103]	N
GLAKGYIDPET [CSNK1G2_Y195_E194G]	N
SIVEDYRPPFY [ACVRL1_Y421_G416S]	Y
DESEDYRDTVV [CNNM3_Y456]	Y
LVKDPYVMFPQ [PLEKHG2_Y489_P484L]	Y

Item KVKPIYFHTRG [AR_Y916_Q920R] with phosphorylation enrichment of 1 or above? N

Item EFGRRYGFSCQ [CCDC93_Y209_R213C_YF] with phosphorylation enrichment of 1 or above? N

Item QTLEAYIRWNK [SPAST_Y604] with phosphorylation enrichment of 1 or above? Y

Item STEEQYRIRQV [EFHC1_Y115] with phosphorylation enrichment of 1 or above? N

Item PSNTEYPGPHS [TP63_Y171_D170E] with phosphorylation enrichment of 1 or above? N

###

Catalogue of phosphorylation enrichment values
system: c-Src; experiment: phosphorylation enrichment, bacterial display (enrichment ratio); higher = better substrate or ligand; peptides without Tyr show the background
Lab note: record the figure alone, no unit after it.

VGSEDYGRDLT [SPTAN1_Y1792]	0.513

Name the recorded phosphorylation enrichment for KQLYAYKMLMA [TMC2_Y209] . 0.383

Name the recorded phosphorylation enrichment for DDLEVYLKHPL [SACS_Y3477_L3481P] . 1.85

Name the recorded phosphorylation enrichment for VVLGSYDRLRV [IFT172_Y260] . 0.405

Name the recorded phosphorylation enrichment for LARHMYDKEFF [MET_Y1230_D1228H_YF] . 0.688

Name the recorded phosphorylation enrichment for LITSVYGCSRQ [TMPRSS6_Y290] . 1.7

Name the recorded phosphorylation enrichment for VATSWYRSPEL [CDKL5_Y177_R175S] . 0.344

Name the recorded phosphorylation enrichment for EFDRLYEEFTR [PIK3R1_Y467_YF] . 5.36

Name the recorded phosphorylation enrichment for HLGNQYVNVMN [SLC3A1_Y461_R456H] . 0.471

Name the recorded phosphorylation enrichment for RLLRGYNQSAF [HLA-C_Y137_D138N_YF] . 0.424

Name the recorded phosphorylation enrichment for WHYTFYNELRV [ACTC1_Y93_H90Y] . 0.619

Name the recorded phosphorylation enrichment for SKLTIYDARPS [MTM1_Y277] . 2.05

Name the recorded phosphorylation enrichment for SFNNKYGMVAQ [APOB_Y276_K273N_YF] . 0.384

Name the recorded phosphorylation enrichment for DASAVYLHDFQ [PLCG2_Y242] . 0.447

###

Catalogue of phosphorylation enrichment values
test system: Fer (mouse); test: phosphorylation enrichment, bacterial display (enrichment ratio); higher = better substrate or ligand; peptides without Tyr show the background
Lab note: record the figure alone, no unit after it.

Name the recorded phosphorylation enrichment for LRFKQYLRNPP [SHC1_Y315] . 0.623

Name the recorded phosphorylation enrichment for VNFGAYINDFK [GLB1_Y488_YF] . 0.393

Name the recorded phosphorylation enrichment for ESLRSYDVMDV [KCNQ2_Y562_P561S] . 0.555

Name the recorded phosphorylation enrichment for QMVGMYASFYM [AVPR2_Y124_S127F] . 3.65

Name the recorded phosphorylation enrichment for EVGRVYLFLQP [ITGA2B_Y360] . 0.627
